All figures here come from paper PMC7419507.

Assay: Cytotoxicity assay (CellTiter-Glo, 72 h), Jurkat
Assay type: cell-based
Settings: human, Jurkat cells (T lymphoma), conc 12.5 uM, raw data (replicates)
Procedure: Jurkat cells were cultured in RPMI1640 medium supplemented with 10% foetal bovine serum, penicillin (50 U/ml), streptomycin (50 μg/ml), and Glutamax. SKOV-3 cells were cultured in DMEM medium supplemented with 10% fetal bovine serum, penicillin (50 U/ml), and streptomycin (50 μg/ml). […] Cell viabilities were measured using a CellTiter-Glo luminescent cell viability assay and EnVision multilabel plate reader.
measurement.label: viability at 72 h, 12.5 uM (%)

molecule=CO[C@@H]1/C=C/C=C/[C@@H](C)C[C@@H](C)C(=O)C[C@H](O)/C(C)=C/[C@@H](C)C(=O)C[C@@H]([C@H](C)C[C@@H]2CC[C@@H](O)[C@H](OC)C2)OC(=O)[C@@H]2CCCCN2C(=O)C(=O)[C@]2(O)O[C@@H](CC[C@H]2C)C1 unit_info=% measured_value=29
molecule="COC1CC2CCC(C)C(O)(O2)C(=O)C(=O)N2CCCCC2C(=O)OC(C(C)CC2CCC(O)C(OC)C2)CC(=O)C(C)C=C(C)C(O)CC(=O)C(C)C=C(C)C=CC=CC=C1C (stereo not shown)" unit_info=% measured_value=38.2
molecule="COC1CC2CCC(C)C(O)(O2)C(=O)C(=O)N2CCCCC2C(=O)OC(C(C)CC2CCC(O)C(OC)C2)CC(O)CC(=O)C(C)C=C(C)C(O)CC(=O)C(C)CC(C)C=CC=CC=C1C (stereo not shown)" unit_info=% measured_value=30.8
molecule=CO[C@H]1C[C@@H]2CC[C@@H](C)[C@@](O)(O2)C(=O)C(=O)N2CCCC[C@H]2C(=O)O[C@H]([C@H](C)C[C@@H]2CC[C@@H](O)[C@H](OC)C2)CC(=O)[C@H](C)/C=C(\C)[C@@H](O)CC(=O)[C@H](C)C[C@H](C)/C=C/C=C(C)/C=C/1C unit_info=% measured_value=79.6

###

assay: Cytotoxicity assay (CellTiter-Glo, 72 h), MESO-1; assay type: cell-based; settings: human, MESO-1 malignant pleural mesothelioma cells, conc 0.195312 uM; raw replicate data; read-out: MESO1 viability (%)
measurement.label: viability at 72 h, 0.195312 uM

compound=CO[C@@H]1/C=C/C=C/[C@@H](C)C[C@@H](C)C(=O)C[C@H](O)/C(C)=C/[C@@H](C)C(=O)C[C@@H]([C@H](C)C[C@@H]2CC[C@@H](O)[C@H](OC)C2)OC(=O)[C@@H]2CCCCN2C(=O)C(=O)[C@]2(O)O[C@@H](CC[C@H]2C)C1 measurement_label="viability at 72 h, 0.195312 uM" measured_value=74.8%
compound="COC1CC2CCC(C)C(O)(O2)C(=O)C(=O)N2CCCCC2C(=O)OC(C(C)CC2CCC(O)C(OC)C2)CC(O)CC(=O)C(C)C=C(C)C(O)CC(=O)C(C)CC(C)C=CC=CC=C1C (stereo not shown)" measurement_label="viability at 72 h, 0.195312 uM" measured_value=74.6%
compound="COC1CC2CCC(C)C(O)(O2)C(=O)C(=O)N2CCCCC2C(=O)OC(C(C)CC2CCC(O)C(OC)C2)CC(=O)C(C)C=C(C)C(O)C(OC)C(=O)C(C)CC(C)C=CCCC=C1C (stereo not shown)" measurement_label="viability at 72 h, 0.195312 uM" measured_value=70.6%
compound=CO[C@H]1C[C@@H]2CC[C@@H](C)[C@@](O)(O2)C(=O)C(=O)N2CCCC[C@H]2C(=O)O[C@H]([C@H](C)C[C@@H]2CC[C@@H](O)[C@H](OC)C2)CC(=O)[C@H](C)/C=C(\C)[C@@H](O)CC(=O)[C@H](C)C[C@H](C)/C=C/C=C(C)/C=C/1C measurement_label="viability at 72 h, 0.195312 uM" measured_value=103%
